Please provide measured pIC50 for the entries that follow.
measurement.target: UniProt P26662
Sequence (P26662 1027-1206, other chains not shown): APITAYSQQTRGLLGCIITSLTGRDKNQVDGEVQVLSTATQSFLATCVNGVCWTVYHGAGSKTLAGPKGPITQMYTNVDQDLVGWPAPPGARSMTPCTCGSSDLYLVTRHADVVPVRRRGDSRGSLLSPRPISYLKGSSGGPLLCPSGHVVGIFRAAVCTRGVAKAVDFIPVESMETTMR
protocol.description: Microplate protease activity assay
Assay type: biochemical, hepatitis C virus (J strain)
measurement.conditions: Table I; inhibition of HCV NS3 protease, co-factor Pep4AK, tritiated substrate
Numbers only, as −log10 of the molar value.

> print(dat)
                                   compound  measurement.target  data.value
1  CCNC(=O)[C@H](CC(C)C)NC(=O)[C@H](CC(=O)O)NC(=O)[C@H](CC1CCCCC1)NC(=O)C1=C(C(=O)O)CCCC1      UniProt P26662        4.42
2  CC(C)C[C@H](NC(=O)[C@H](CC(=O)O)NC(=O)[C@H](CC1CCCCC1)NC(=O)[C@H]1CCCC[C@@H]1C(=O)O)C(N)=O      UniProt P26662        4.27
3  CC(C)C[C@H](NC(=O)[C@H](CC(=O)O)NC(=O)[C@H](CC1CCCCC1)NC(=O)c1ccccc1C(=O)O)C(N)=O      UniProt P26662        4.19

For every item below, please supply its pIC50.
1. CCNC(=O)[C@H](CC(C)C)NC(=O)[C@H](CC(=O)O)NC(=O)[C@H](CC1CCCCC1)NC(=O)c1ccccc1C(=O)O
2. CC(C)C[C@H](NC(=O)[C@H](CC(=O)O)NC(=O)[C@H](CC1CCCCC1)NC(=O)[C@@H]1CCCC[C@H]1C(=O)O)C(N)=O (single isomer, unassigned)
3. CC(C)C[C@H](NC(=O)[C@H](CC(=O)O)NC(=O)[C@H](CC1CCCCC1)NC(=O)[C@@H]1CCC[C@H]1C(=O)O)C(N)=O

1. 4.19
2. 4.82
3. 4.22
